Test system: CCRIS mutagenicity, Ames/micronucleus/aberration tests
Experiment: CCRIS mutagenicity studies
Settings: Test System: AMES SALMONELLA TYPHIMURIUM; Strain/Indicator: TA100; Metabolic Activation: S-9; Method: STANDARD PLATE
The source made the active and inactive calls. How the calls were made is not given here.
Pick from yes (1) for active, no (0) for inactive when you respond.

Example results:
* N#Cc1cccc(/C=C/c2ccc([N+](=O)[O-])cc2)c1 | yes (1)
* CCCCC(=O)Nc1snc2ccc(Cl)cc12 | no (0)
* O=C(N=c1sn(C(=O)c2cccc(Cl)c2)c2ccc([N+](=O)[O-])cc12)c1cccc(Cl)c1 | yes (1)
* c1ccc2sc(SN3CCOCC3)nc2c1 | no (0)
* COC(=O)Nc1nc2ccccc2[nH]1 | no (0)

Ask: # fetch the recorded call for CC[C@@H](CO)NCCN[C@@H](CC)CO here
Reply: no (0)

Ask: Proceed to Nc1ccc(-c2ccc(N)c([N+](=O)[O-])c2)cc1
Reply: yes (1)

Ask: Now try O=C(CCCCl)N=c1sn(C(=O)CCCCl)c2ccc(Cl)cc12 .
Reply: yes (1)

Ask: // repeat for Cc1cc(Cc2cc(C)cc(C(C)(C)C)c2O)c(O)c(C(C)(C)C)c1 and report
Reply: no (0)

Ask: And for CN(C)C(=S)SSC(=S)N(C)C ?
Reply: yes (1)

Ask: Also need CCN(CC)C(=O)/C(Cl)=C(\C)OP(=O)(OC)OC , thanks.
Reply: no (0)

Ask: Same thing, different compound: O=Nc1ccc2ccccc2c1
Reply: yes (1)

Ask: What do you have for Nc1ccc(/C=C/c2cccc(N)c2)cc1 ?
Reply: yes (1)

###

System: CCRIS mutagenicity, Ames/micronucleus/aberration tests
Experiment: CCRIS mutagenicity studies
Details: Test System: AMES SALMONELLA TYPHIMURIUM; Strain/Indicator: TA1535; Metabolic Activation: HAMSTER, LIVER, S-9, AROCLOR 1254 (10%); Method: PREINCUBATION
The source made the active and inactive calls. No rule for the calls is given here.
Outcome field: choose from label 1 (active), label 0 (inactive)

The examples below pair each entry with its known result.
* c1ccsc1 | label 0
* CC(O)c1ccccc1 (stereo unspecified) | label 0
* COc1ccc(C(=O)c2ccccc2)c(O)c1 | label 0
* COc1ccc(N)cc1N | label 0

Ask: For C=C(C)C(=O)OCC(Br)CBr (stereo unspecified) , which call appears in the assay record?
Reply: label 1

Ask: Follow-up entry: CN(C)CCO
Reply: label 0

Ask: Entry to check: CC(C)CCCCCCCOC(=O)c1ccccc1C(=O)OCCCCCCCC(C)C
Reply: label 0

Ask: Check Nc1c(Br)cc(Br)c2c1C(=O)c1ccccc1C2=O too.
Reply: label 0

Ask: Can you check [O-][Br+2]([O-])O next?
Reply: label 1

Ask: Would you mind doing CC(=O)NNc1ccccc1 as well?
Reply: label 0

Ask: Field entry: C=CC(=O)OCC1CO1 (stereo unspecified)
Reply: label 1

###

Tested on: CCRIS mutagenicity, Ames/micronucleus/aberration tests
Experiment: CCRIS mutagenicity studies
Conditions: Test System: AMES SALMONELLA TYPHIMURIUM; Strain/Indicator: TA100; Metabolic Activation: HAMSTER, LIVER, S-9, AROCLOR 1254 (30%); Method: PREINCUBATION
The source made the active and inactive calls. How the calls were made is not given here.
reported_property: mutagenic call

Examples from the recorded data:
• CC(=O)NNc1ccccc1 = inactive; negative
• CC(=O)O = inactive; negative
• CCCCC(CC)COCCC#N (centres undefined) = inactive; negative
• CC(C)CON=O = active; positive
• O=C1c2ccccc2C(=O)C1c1ccc2ccccc2n1 = active; positive

Ask: Please report the recorded mutagenic call for O=NN1CCOCC1 .
Reply: active; positive

Ask: And for c1ccc2cc3c(cc2c1)-c1cccc2cccc-3c12 ?
Reply: active; positive

Ask: Try Cc1ccccc1N=Nc1c(O)ccc2ccccc12 next.
Reply: active; positive

Ask: Then what about the molecule CC/C=C/C#N ?
Reply: inactive; negative

Ask: Oc1ccc(Nc2ccc3ccccc3c2)cc1 ?
Reply: inactive; negative

###

Test system: CCRIS mutagenicity, Ames/micronucleus/aberration tests
Test: CCRIS mutagenicity studies
Conditions: Test System: AMES SALMONELLA TYPHIMURIUM; Strain/Indicator: TA98; Metabolic Activation: RAT, LIVER, S-9, AROCLOR 1254; Method: STANDARD PLATE
Calls of active or inactive are those of the source. No rule for the calls is given here.
Pick one: Yes = active, No = inactive

Recorded results for 6 compounds are shown here.
• Cc1cc(N)c(C)c([N+](=O)[O-])c1N = Yes
• [O-][N+](=Nc1ccc(Cl)c(Cl)c1)c1ccc(Cl)c(Cl)c1 = No
• CC(=O)Nc1ccc(Oc2c(Cl)cc(Cl)cc2Cl)cc1 = No
• O=C(O)C(Cl)Cl = No
• CC(=O)O[C@]1(C(C)=O)CC[C@H]2[C@@H]3C[C@H](C)C4=CC(=O)CC[C@]4(C)[C@H]3CC[C@@]21C = No
• Cl/C=C/C[N+]12CN3CN(CN(C3)C1)C2 = No

Ask: Identify the outcome logged in this assay for the compound shown: Cc1c(C)c2c(c(C)c1O)CC[C@@](C)(CCC[C@H](C)CCC[C@H](C)CCCC(C)C)O2
Reply: No

Ask: Queued: O=C(O)c1nn(Cc2ccc(Cl)cc2Cl)c2ccccc12
Reply: No

Ask: Can you handle O=C(/C=C/c1ccc(O)c(O)c1)O[C@@H]1C[C@](O)(C(=O)O)C[C@@H](O)[C@H]1O next?
Reply: No

Ask: Another compound to look at: CC=O
Reply: No

Ask: For Nc1ccc(-c2ccc(Cl)cc2)cc1 then?
Reply: Yes

Ask: Try this compound next: O=c1oc2cc([N+](=O)[O-])ccc2c2ccccc12
Reply: Yes

###

System: CCRIS mutagenicity, Ames/micronucleus/aberration tests
Assay: CCRIS mutagenicity studies
Settings: Test System: CHINESE HAMSTER V-79; Strain/Indicator: V-79 (HGPRT)/6-THIOGUANINE; Metabolic Activation: NONE
The source made the active and inactive calls. No rule for the calls is given here.
reported_property: mutagenic call

These recorded examples may help you get a feel for the data.
* Cc1ccccc1N | inactive; negative
* COc1cccc2c1C(=N)c1c(O)c3c(c(O)c1C2=O)C[C@@](O)(C(C)=O)C[C@@H]3O[C@H]1C[C@H](N)[C@H](O)[C@H](C)O1 | active; positive
* Brc1ccc(-c2ccc(Br)c(Br)c2)cc1Br | inactive; negative
* CC(=O)CC(=O)CCC(=O)O | inactive; negative
* Nc1ccn([C@@H]2O[C@H](CO)[C@@H](O)C2O)c(=O)n1 (stereo not given in full) | inactive; negative
* CCN(CC)CCNC(=O)c1ccc(N)cc1 | inactive; negative
* CC1=CC(=O)C=C2CC[C@@H]3[C@H](CC[C@]4(C)C(=O)CC[C@@H]34)[C@@]12C | inactive; negative
* CCN(CC)CCNc1ccc2ncn3c4ccc(O)cc4c(=O)c1c23 | active; positive

Ask: Recorded mutagenic call for COc1cccc2c1C(=O)c1c(O)c3c(c(O)c1C2=O)C[C@@](O)(C(=O)CO)C[C@@H]3O[C@H]1C[C@H](N)[C@H](O)[C@H](C)O1 , please?
Reply: active; positive

Ask: # repeat for CC(=O)O[C@]1(C(C)=O)CC[C@H]2[C@@H]3C[C@H](C)C4=CC(=O)CC[C@]4(C)[C@H]3CC[C@@]21C
Reply: inactive; negative

###

Test system: CCRIS mutagenicity, Ames/micronucleus/aberration tests
Assay: CCRIS mutagenicity studies
Conditions: End Point: In vitro chromosomal aberrations; Test System: Chinese hamster lung (CHL/IU) cells; Metabolic Activation: Rat, Liver, S9, Phenobarbital and 5,6-benzoflavone
Active and inactive are the calls of the source. The rule behind the calls is not given here.
Bench note: report the call from yes (active), no (inactive)

* Nc1cc(Cl)cc(Cl)c1 | yes
* CC=O | yes
* C1N2CN3CN1CN(C2)C3 | no

Would you kindly look at the next entry?
Ask: Identify the outcome logged in this assay for the molecule shown: Nc1ccccc1S
Reply: yes

###

System: CCRIS mutagenicity, Ames/micronucleus/aberration tests
Assay: CCRIS mutagenicity studies
Details: Test System: AMES SALMONELLA TYPHIMURIUM; Strain/Indicator: TA100; Metabolic Activation: RAT, LIVER, S-9, PCB; Method: STANDARD PLATE
Active and inactive are the calls of the source. How the calls were made is not given here.
Respond only with the outcome that fits, drawn from active, inactive

For orientation, consider the following solved cases.
- CC(=O)Nc1ccc(Cc2ccc(NC(C)=O)cc2)cc1: inactive
- O=C1C=Cc2ccc3c4c(ccc1c24)C=CC3=O: inactive
- Cc1ccc2c(c1)C(=O)c1ccccc1C2=O: inactive
- Cc1ccc2ccc3ccc(C)cc3c2c1: inactive
- Cn1cc(C[C@@]2(O)C(=O)O[C@@H]3[C@@H](O)CO[C@@]32O)c2ccccc21: active
- Cc1ccc2c(ccc3ccccc32)c1: active

Ask: In this assay, the call recorded for CCN(CC)CCCC(C)Nc1ccnc2cc(Cl)ccc12 (centres undefined) was what?
Reply: inactive

Ask: Ok, now CC(=O)Oc1ccccc1C(=O)O
Reply: inactive

Ask: Similarly, Nc1ccc(Oc2ccc(N)cc2)cc1 ?
Reply: active
